- Test system: EKVX NSCLC
- measurementProtocol: NCI-60 one-dose screen, 48 h (100 = growth as untreated, 0 = no growth, -100 = all killed)
- conditionParameters: 10 µM unless noted
The panel holds about 83,000 compounds, 20% with a hit somewhere; the sample as a whole holds those more often.
Please use the following growth ranges when assigning a class: bucket A = under 40%, bucket B = from 40% up to 80%, bucket C = 80% and over

INSERT INTO assay_data (molecule, answerlabel) VALUES
  ('Nc1nc2c3ccncc3cc(-c3cccc(Cl)c3)c2c2cnccc12', 'bucket B'),
  ('COc1ccc(OCC(CO)N2CCN(c3ccccc3)CC2)cc1 (stereo unspecified)', 'bucket C'),
  ('Oc1ccc(CCC2CCCC(CCc3ccc(OCCF)cc3)N2)cc1 (stereo unspecified)', 'bucket C'),
  ('COc1cc(NC(C)CN(CC(C)C)C(C)C)c2ncccc2c1 (stereo unspecified)', 'bucket C'),
  ('CC1(C)c2ccccc2C(=O)C1(Br)Cc1ccccc1 (stereo unspecified)', 'bucket C'),
  ('Oc1cccc2oc(=S)[nH]c12', 'bucket C'),
  ('Cc1cc2nc3c4cc([N+](=O)[O-])cc([N+](=O)[O-])c4n(CCN(C)C)c3nc2cc1C', 'bucket C'),
  ('Cc1ccc(C)c2c1CCC2C(C)C (stereo unspecified)', 'bucket C'),
  ('CC(=O)c1c(C)[nH]c(-c2nc3ccc(N4CCN(C)CC4)cc3[nH]2)c1-c1ccc(OCC2CCOCC2)cc1', 'bucket A'),
  ('Clc1ccc2c(NCCNc3nc(-c4ccccc4)cc(-c4ccccc4)n3)ccnc2c1', 'bucket A'),
  ('Cc1ccc(Cc2cnc(NC(=O)/C=C/c3cccc(C)c3)s2)cc1', 'bucket A'),
  ('COc1ccc(-c2n[nH]nc2-c2cc3ccccc3s2)cc1O', 'bucket B'),
  ('Cn1nc(-c2ccccc2)c2c(-c3ccccc3)onc2c1=O', 'bucket B'),
  ('Cc1ccc(S(=O)(=O)Nc2ccc(-c3cc(-c4cccc(F)c4)c(C#N)c(N)n3)cc2)cc1', 'bucket B'),
  ('CCc1ccccc1NC(=O)c1sc2nc3c(cc2c1N)CCCC3', 'bucket B'),
  ('CCCCCCCN(CCCCCCC)C(=N)c1ccnc2ccccc12', 'bucket A'),
  ('Cc1ccc(-c2nc([P+](c3ccccc3)(c3ccccc3)c3ccccc3)c(N3CCOCC3)o2)cc1', 'bucket A'),
  ('c1ccc(-c2nc(Nc3ccc(-c4nc5ccccc5[nH]4)cc3)nc(N3CCOCC3)n2)cc1', 'bucket A'),
  ('Cc1ccccc1-c1nc(C(Cl)Cl)nc2cc(-c3ccccc3)nn12', 'bucket B');

Data provenance is PubChem BioAssay (NCI).
